- System Under Test: human TRPV4 (Homo sapiens, UniProt Q9HBA0)
- Construct: host or cells: tetracycline-inducible Flp-In T-REx 293 cells
- Sequence (Q9HBA0 whole entry): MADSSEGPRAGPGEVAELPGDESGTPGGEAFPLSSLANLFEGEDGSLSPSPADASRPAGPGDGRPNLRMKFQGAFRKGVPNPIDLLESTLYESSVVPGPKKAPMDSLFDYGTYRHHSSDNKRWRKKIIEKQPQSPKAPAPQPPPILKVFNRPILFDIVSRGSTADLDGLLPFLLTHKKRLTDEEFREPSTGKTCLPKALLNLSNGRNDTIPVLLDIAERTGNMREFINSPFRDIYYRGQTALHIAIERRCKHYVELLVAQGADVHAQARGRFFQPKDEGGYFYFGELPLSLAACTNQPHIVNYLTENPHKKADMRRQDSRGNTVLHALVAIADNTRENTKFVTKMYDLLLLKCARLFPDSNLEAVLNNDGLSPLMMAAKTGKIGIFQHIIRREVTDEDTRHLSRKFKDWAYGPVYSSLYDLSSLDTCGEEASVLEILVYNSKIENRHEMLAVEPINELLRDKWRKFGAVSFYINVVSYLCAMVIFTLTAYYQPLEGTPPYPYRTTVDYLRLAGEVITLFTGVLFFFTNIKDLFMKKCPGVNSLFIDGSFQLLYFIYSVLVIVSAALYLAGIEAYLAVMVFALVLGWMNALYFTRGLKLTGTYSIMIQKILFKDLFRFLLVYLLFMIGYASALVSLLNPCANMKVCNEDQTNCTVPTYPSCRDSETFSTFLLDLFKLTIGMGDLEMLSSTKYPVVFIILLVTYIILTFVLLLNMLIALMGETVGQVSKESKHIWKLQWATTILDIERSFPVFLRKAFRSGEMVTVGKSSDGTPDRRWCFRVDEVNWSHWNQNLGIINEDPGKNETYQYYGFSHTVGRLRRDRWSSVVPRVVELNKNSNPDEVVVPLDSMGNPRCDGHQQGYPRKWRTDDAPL
- Assay Comment: Hypotonicity-induced Ca2+ influx (Fluo-4, FDSS)
- Type: cell-based
- Condition Summary: Flp-In T-REx 293 cells stably expressing human TRPV4, compounds listed by potency bin (<10 nM Tables 96-1/96-2, <3 nM Table 97)
pIC50: −log10 of the molar value.
Endpoint: pIC50

// solved cases for pIC50 follow
- Compound: "O=C(Cc1cccc(-c2cccc(C(F)(F)F)c2)c1)N1CCc2nc(C3(c4cccc(Cl)c4)CC3)[nH]c(=O)c2C1"
  Endpoint: "pIC50"
  Result: "> 8.00"
- Compound: "O=C([C@H](O)c1cccc(-c2cccc(C(F)(F)F)n2)c1)N1CCc2nc(C3(c4ccccc4)CC3)[nH]c(=O)c2C1"
  Endpoint: "pIC50"
  Result: "> 8.52"
- Compound: "O=C(N1CCCc2nc(C3(c4cccc(Cl)c4)CC3)[nH]c(=O)c2C1)C(F)(F)c1cccc(Cl)c1"
  Endpoint: "pIC50"
  Result: "> 8.52"
- Compound: "CC(C)(C)c1cccc(-c2cccc([C@@H](O)C(=O)N3CCCc4nc(C5(c6cncc(C7CCCCC7)c6)CC5)[nH]c(=O)c4C3)c2)c1"
  Endpoint: "pIC50"
  Result: "> 8.00"
- Compound: "O=C([C@H](O)c1cccc(Br)c1)N1CCCc2nc(C3(c4cccc(-c5csc6ccccc56)c4)CC3)[nH]c(=O)c2C1"
  Endpoint: "pIC50"
  Result: "> 8.00"

Input line: Which pIC50 reading was recorded for the compound O=C([C@H](O)c1cccc(-c2cccc(Cl)c2)c1)N1CCCc2nc(C3(c4cccc(Cl)c4)CC3)[nH]c(=O)c2C1 ?
Output line: > 8.00

Input line: Which pIC50 reading was recorded for the compound CC(C)(C)c1cccc(-c2cccc([C@@H](O)C(=O)N3CCCc4nc(C5(c6cc(-c7ccccc7)cs6)CC5)[nH]c(=O)c4C3)c2)c1 ?
Output line: > 8.00

Input line: Which pIC50 reading was recorded for the compound CC(C)c1cccc(C2(c3nc4c(c(=O)[nH]3)CN(C(=O)C(O)c3cccc(C(F)(F)F)c3F)CC4)CC2)c1 (centres unmarked) ?
Output line: > 8.00

Input line: Which pIC50 reading was recorded for the compound CC(C)c1csc(C2(c3nc4c(c(=O)[nH]3)CN(C(=O)C(O)c3cccc(C(C)(C)C)c3)CCC4)CC2)c1 (centres unmarked) ?
Output line: > 8.00

Input line: Which pIC50 reading was recorded for the compound O=C([C@H](O)c1cccc(C(F)(F)F)c1)N1CCCc2nc(C3(c4cccc(OCc5ccccc5)c4)CC3)[nH]c(=O)c2C1 ?
Output line: > 8.00

====

- System Under Test: human TRPV4 (Homo sapiens)
- Construct: host or cells: tetracycline-inducible Flp-In T-REx 293 cells
- Assay Comment: Hypotonicity-induced Ca2+ influx (Fluo-4, FDSS)
- Assay type: cell-based
- Condition Summary: Flp-In T-REx 293 cells stably expressing human TRPV4, compounds listed by potency bin (<10 nM Tables 96-1/96-2, <3 nM Table 97)
pIC50: −log10 of the molar value.
Listed below: pIC50 values for each entry.

// solved cases for pIC50 follow
- Compound: "CC(C)c1cccc(C2(c3nc4c(c(=O)[nH]3)CN(C(=O)Cc3cccc(-c5cccc(C(F)(F)F)c5)c3)CCC4)CC2)c1 [31-13]"
  pIC50: "> 8.00"
- Compound: "O=C([C@H](O)c1cccc(-c2ccnc(C(F)(F)F)c2)c1)N1CCCc2nc(C3(c4ccccc4)CC3)[nH]c(=O)c2C1 [49-17]"
  pIC50: "> 8.52"
- Compound: "CC(C)Oc1cccc(-c2cccc([C@@H](O)C(=O)N3CCCc4nc(C5(c6cccc(Cl)c6)CC5)[nH]c(=O)c4C3)c2)c1 [50-13]"
  pIC50: "> 8.00"

Input line: Which pIC50 reading was recorded for the compound O=C([C@H](O)c1cccc(-c2cccc(F)c2)c1)N1CCCc2nc(C3(c4cccc(C5CCCCC5)c4)CC3)[nH]c(=O)c2C1 [52-1] ?
Output line: > 8.00

Input line: Which pIC50 reading was recorded for the compound CC(C)c1cncc(C2(c3nc4c(c(=O)[nH]3)CN(C(=O)[C@H](O)c3cccc(-c5ccc(Cl)cc5)c3)CC4)CC2)c1 [47-4] ?
Output line: > 8.00

Input line: Which pIC50 reading was recorded for the compound O=C([C@H](O)c1cccc(C(F)(F)F)c1)N1CCCc2nc(C3(c4cccc(-c5nc6ccccc6s5)c4)CC3)[nH]c(=O)c2C1 [17-97] ?
Output line: > 8.00

Input line: Which pIC50 reading was recorded for the compound O=C([C@H](O)c1cccc(-c2ccc(OC(F)(F)F)cc2)c1)N1CCCc2nc(C3(c4cccc(Cl)c4)CC3)[nH]c(=O)c2C1 [50-26] ?
Output line: > 8.00

Input line: Which pIC50 reading was recorded for the compound O=C([C@H](O)c1cccc(C(F)(F)F)c1)N1CCCc2nc(C3(c4cccc(-c5cncc(C(F)(F)F)c5)c4)CC3)[nH]c(=O)c2C1 [42-45] ?
Output line: > 8.00

Input line: Which pIC50 reading was recorded for the compound CC(C)c1cccc(-c2cccc(CC(=O)N3CCCc4nc(C5(c6cccc(Cl)c6)CC5)[nH]c(=O)c4C3)c2)c1 [57-5] ?
Output line: > 8.00

Input line: Which pIC50 reading was recorded for the compound O=C([C@H](O)c1cccc(-c2ccc(OC(F)(F)F)cc2)c1)N1CCCc2nc(C3(c4ccccc4)CC3)[nH]c(=O)c2C1 [49-33] ?
Output line: > 8.52

Input line: Which pIC50 reading was recorded for the compound CC(C)(C)c1cccc(CC(=O)N2CCCc3nc(C4(c5cccc(Cl)c5)CC4)[nH]c(=O)c3C2)c1 [17-141] ?
Output line: > 8.00

Input line: Which pIC50 reading was recorded for the compound CC(C)c1csc(C2(c3nc4c(c(=O)[nH]3)CN(C(=O)C(O)c3cccc(SC(F)(F)F)c3)CCC4)CC2)c1 (centres unmarked) [18-19] ?
Output line: > 8.00

Input line: Which pIC50 reading was recorded for the compound O=C(N1CCCc2nc(C3(c4ccccc4)CC3)[nH]c(=O)c2C1)C(F)(F)c1cccc(-c2cccc(C3CC3)c2)c1 [58-4] ?
Output line: > 8.00

Input line: Which pIC50 reading was recorded for the compound O=C(Cc1cccc(-c2cc(F)cc(Cl)c2)c1)N1CCCc2nc(C3(c4cccc(Cl)c4)CC3)[nH]c(=O)c2C1 [57-9] ?
Output line: > 8.00
